System: Anaerococcus tetradius
Test: Antibacterial activity against Anaerococcus tetradius isolated from patient with diabetic foot infection assessed as percent resistant isolates after 44 to 48 hrs by agar dilution method
Format: functional
Metric name: Activity (%)

{"Molecule": "Cc1ncc([N+](=O)[O-])n1CCO [METRONIDAZOLE]", "Measured on": "Anaerococcus tetradius", "Reported measurement": 0}
{"Molecule": "C[C@@H](O)[C@H]1C(=O)N2C(C(=O)O)=C(S[C@@H]3CN[C@H](C(=O)Nc4cccc(C(=O)O)c4)C3)[C@H](C)[C@H]12 [ERTAPENEM]", "Measured on": "Anaerococcus tetradius", "Reported measurement": 0}
{"Molecule": "C[C@@H](O)[C@H]1C(=O)N2C(C(=O)O)=C(S[C@@H]3CN[C@H](CNS(N)(=O)=O)C3)[C@H](C)[C@H]12 [DORIPENEM]", "Measured on": "Anaerococcus tetradius", "Reported measurement": 0}
{"Molecule": "C[C@@H](O)[C@H]1C(=O)N2C(C(=O)O)=C(S[C@@H]3CN[C@H](C(=O)N(C)C)C3)[C@H](C)[C@H]12 [MEROPENEM]", "Measured on": "Anaerococcus tetradius", "Reported measurement": 0}
{"Molecule": "C[C@@H](O)[C@H]1C(=O)N2C(C(=O)O)=C(SCCNC=N)C[C@H]12 [IMIPENEM ANHYDROUS]", "Measured on": "Anaerococcus tetradius", "Reported measurement": 0}
{"Molecule": "CCC[C@@H]1C[C@@H](C(=O)N[C@@H]([C@H]2O[C@H](SC)[C@H](O)[C@@H](O)[C@H]2O)[C@H](C)Cl)N(C)C1 [CLINDAMYCIN]", "Measured on": "Anaerococcus tetradius", "Reported measurement": 18}

// provenance: ChEMBL document CHEMBL1153560
